subject of test: Calcium and integrin-binding protein 1 (Homo sapiens)
method summary: Primary qHTS for Identification of Calcium Integrin Binding Protein 1 (CIB1) Competitor (AID 1508620);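 also: GST tagged CIB1 binding a fluorescein labelled alphaIIb integrin peptide tracer; top concentration of the series differs between compounds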
measurement context: CIB1-GST / FITC-alphaIIb peptide fluorescence polarization; series mostly up to 114 µM
Results filed as inconclusive are left out. Activity calls are given as the source filed them. Calls follow the shape of the dose curve; as a rule, active = well fitted inhibition curve with a large enough effect; inconclusive = small, poorly fitted or top-dose-only effect; inactive = flat fitted curve, though single readings scatter.
assay endpoint: activity change, negative = inhibition

INSERT INTO assay_data (compound, result) VALUES
  ('COC(=O)CC(O)C1OC(c2ccccc2)C(O)C1O (centres undefined)', 'inactive'),
  ('CCOC(=O)c1cc(C#N)c(N2CCC(C(=O)NS(=O)(=O)Cc3ccccc3)CC2)nc1C', 'inactive'),
  ('CCCOC(c1cc2nccc(C(=O)O)c2[nH]1)c1ccccc1Cl (centres undefined)', 'inactive'),
  ('CC1CCC2(OC1)OC1CC3C4CCC5C[C@@H](O[C@@H]6O[C@H](CO[C@@H]7OC[C@@H](O)[C@H](O)[C@H]7O)[C@H](O)[C@H](O)[C@H]6O)CC[C@]5(C)C4CC[C@]3(C)C1C2C (some centres undefined)', 'inactive');

----------
method summary: Primary fluorescence-based thiol-reactive (MSTI) qHTS assay for identification of artifact compounds. (AID 1845221); also: nearly all actives have a fitted effect of over 65% in size
measurement context: MSTI thiol-reactivity probe, 1 h; series mostly up to 53.8 µM
Records with an inconclusive call do not appear. The source made the active and inactive calls. Calls come from the whole dose curve; as a rule, active = well fitted inhibition curve with a large enough effect; inconclusive = small, poorly fitted or top-dose-only effect; inactive = no such curve, though single readings can be large or run the other way.
Pick one and only one: yes (1) (active), no (0) (inactive)

Consider the following illustrative entries.
INSERT INTO measurements (compound, cat) VALUES
  ('Cc1ccc(S(=O)(=O)c2ccc([N+](=O)[O-])o2)cc1', 'yes (1)'),
  ('Cc1c(C(=O)Nc2ccc(N3CC(C)OC(C)C3)nc2)cccc1-c1ccc(OC(F)(F)F)cc1 (stereo not given)', 'no (0)'),
  ('COC(=O)[C@H](O)[C@H]1C(C)(C)[C@H](OC(=O)C(C)C)[C@@]2(O)C(=O)[C@]1(C)C1CC[C@]3(C)C(CC(=O)O[C@H]3c3ccoc3)[C@]13O[C@@H]32 (stereo not given in full)', 'no (0)'),
  ('Cc1cc(Cl)ccc1COc1ccnn1-c1cc(C(=O)O)ccn1', 'no (0)'),
  ('CC1(C)CC[C@]2(C(=O)O[C@@H]3O[C@H](CO)[C@@H](O)[C@H](O)[C@H]3O)CC[C@]3(C)C(=CCC4[C@@]5(C)C[C@@H](O)[C@H](O)[C@](C)(C(=O)O)C5CC[C@]43C)C2C1O (stereo not given in full)', 'no (0)'),
  ('CNC(=O)c1ccccc1Nc1nc(Nc2ccc3c(c2OC)CCCC(N2CCN(CCO)CC2)C3)ncc1Cl (stereo not given)', 'no (0)');

(Q) For CCc1ccc(Cc2ccc3c(c2)[C@]2(OC3)O[C@H](CO)[C@@H](O)[C@H](O)[C@H]2O)cc1 , what call appears in the results of this test?
(A) no (0)

----------
System: HEK293
method summary: Cytotoxic Profiling of Annotated Libraries Using Quantitative High-Throughput Screening (AID 1296008); also: nearly all actives have a fitted effect of over 60% in size
measurement context: Five cell lines viability, CellTiter-Glo ATP luminescence, 48-72 h
Inconclusive results are not listed. Activity calls are given as the source filed them. The call rests on the fitted dose curve; in most records, active means well fitted inhibition curve with a large enough effect; inconclusive means small, poorly fitted or top-dose-only effect; inactive means flat fitted curve, though single readings scatter.
Pick one and only one: T (active), F (inactive)

Consider the following illustrative entries.
INSERT INTO results (compound, cat) VALUES
  ('CCOc1cc(C(=O)N2CCC(N3CCN(C)CC3)CC2)ccc1Nc1ncc2c(n1)N(C1CCCC1)c1ccccc1C(=O)N2C', 'T'),
  ('C=C1C(=O)O[C@H]2C1[C@H](OC(=O)/C(=C/CO)COC(=O)/C(C)=C/CO)CC(=C)[C@@H]1CC(=O)[C@@H](C)[C@@H]12 (stereo partly drawn)', 'T'),
  ('CC(C)[C@@](C)(O)[C@@H]1CN(c2nc(-c3[nH]nc4ncccc34)c(F)cc2Cl)CCN1', 'T'),
  ('Cc1ccc(F)cc1C(=O)Nc1ccc(C(=O)N2Cc3cccn3Cc3ccccc32)c(Cl)c1', 'T'),
  ('C=C1CCC2C(C)(COC(C)=O)CCCC2(C)C1CCC(C)CC(=O)O (stereo not drawn)', 'F');

(Q) For CCN1CCN(Cc2ccc(NC(=O)c3ccc(C)c(/C=C/c4cnc5[nH]ccc5c4OC)c3)cc2C(F)(F)F)CC1 , what call appears in the results of this test?
(A) T

(Q) For COc1cc(C2c3cc4c(c(O)c3CC(CO)C2C(=O)O)OCO4)cc(OC)c1O (stereo not drawn) , what call appears in the results of this test?
(A) T

(Q) For CC(=O)OC1CC2C3(C)CCC(OC(=O)CC(=O)O)C(C)(C)C3CCC2(C)C2(C)CCC(C3(C)CCC(=O)O3)C12 (stereo not drawn) , what call appears in the results of this test?
(A) F

These entries and their values trace back to PubChem BioAssay (NCATS).
